In this section, each of the binders is paired with its reported kon.
# testedTarget: T1, recombinant his-tag human LAG3-ECD protein (human, UniProt P18627 23-450)
# T1 construct: extracellular domain; not shown: his tag
# T1 sequence (looked up): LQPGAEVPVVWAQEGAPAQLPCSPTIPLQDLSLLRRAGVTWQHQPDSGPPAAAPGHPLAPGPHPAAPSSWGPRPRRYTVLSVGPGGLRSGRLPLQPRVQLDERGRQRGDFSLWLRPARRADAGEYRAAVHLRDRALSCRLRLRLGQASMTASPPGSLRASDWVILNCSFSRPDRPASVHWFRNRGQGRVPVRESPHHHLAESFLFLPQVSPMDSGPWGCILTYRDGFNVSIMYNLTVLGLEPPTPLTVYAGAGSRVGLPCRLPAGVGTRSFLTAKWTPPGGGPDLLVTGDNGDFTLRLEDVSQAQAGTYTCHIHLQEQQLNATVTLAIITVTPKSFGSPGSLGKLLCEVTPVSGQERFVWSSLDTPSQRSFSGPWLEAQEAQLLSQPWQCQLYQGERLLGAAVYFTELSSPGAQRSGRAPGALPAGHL
# assayMethodText: SPR Biacore T200, capture method as Example 2.7
State just the number; it will be interpreted in M⁻¹ s⁻¹.

147H 3793 (antibody, V domains shown) VH: EVQLVQSGAEVKKPGASVKVSCKASGYLFTNYWLGWIKQAPGQGLEWIGDIYPGGDYIVYNEKFKGKATLTADTSISTAYMELSRLRSDDTAVYYCARPNLPGDYWGQGTTVTVSS VL: DIVMTQSPLSLPVTPGEPASISCRSSKSLLHSNAITYLYWYLQKPGQSPQLLIYQVSNLASGVPDRFSGSGSGTDFTLKISRVEAEDVGVYYCGQNLELPWTFGGGTKVEIK; 1.8e+06
147H 3808 (antibody, V domains shown) VH: EVQLVQSGAEVKKPGASVKVSCKASGYTFTNYWLGWIKQAPGQGLEWIGDIYPGGDYIVYNEKFKGKATLTADTSISTAYMELSRLRSDDTAVYYCARPNLPKDHWGQGTTVTVSS VL: DIVMTQSPLSLPVTPGEPASISCRSSKSLLHSNAITYLYWYLQKPGQSPQLLIYQVSNLASGVPDRFSGSGSGTDFTLKISRVEAEDVGVYYCGQYLELPWTFGGGTKVEIK; 4.3e+06

Name the recorded kon of the item 147H 3807b (antibody, V domains shown, also called B3807b) VH: EVQLVQSGAEVKKPGASVKVSCKASGYTFTNYWLGWIKQAPGQGLEWIGDIYPGGDYIVYNEKFKGKATLTADTSISTAYMELSRLRSDDTAVYYCARPNLPKDHWGQGTTVTVSS VL: DIVMTQSPLSLPVTPGEPASISCRSSKSLLHSNAITYLYWYLQKPGQSPQLLIYQVSNLASGVPDRFSGSGSGTDFTLKISRVEAEDVGVYYCAQYLELPWTFGGGTKVEIK in your answer.
4e+06
